- studySystem: human PAH with the R408W mutation (Homo sapiens, UniProt P00439, R408W)
- Construct: expressed in transfected cells
- Sequence (P00439 whole entry R408W): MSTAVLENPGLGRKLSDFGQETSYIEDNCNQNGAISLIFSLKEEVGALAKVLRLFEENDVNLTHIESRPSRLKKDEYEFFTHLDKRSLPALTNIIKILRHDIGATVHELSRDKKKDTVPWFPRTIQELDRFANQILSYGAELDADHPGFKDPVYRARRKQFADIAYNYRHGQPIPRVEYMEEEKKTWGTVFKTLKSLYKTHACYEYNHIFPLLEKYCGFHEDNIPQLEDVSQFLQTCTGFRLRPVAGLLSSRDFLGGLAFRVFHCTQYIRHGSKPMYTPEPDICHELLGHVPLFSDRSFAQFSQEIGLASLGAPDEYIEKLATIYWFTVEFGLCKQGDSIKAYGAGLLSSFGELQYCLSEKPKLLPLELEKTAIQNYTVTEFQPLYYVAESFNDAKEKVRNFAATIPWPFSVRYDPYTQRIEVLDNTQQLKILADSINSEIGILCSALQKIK
- protocolDescription: Cell Based Phenylalanine Flux Assay
- studyConditions: A375 cells expressing human R408W PAH; 24 hrs with compound; 13C-Tyrosine by LC-MS; average where tested multiple times; read-out: AC50
Entries and their AC50

Prompt: Fill in: AC50 of O=C(c1cnco1)N1CCCc2[nH]cnc2C1c1nc2ccccc2s1 (centres unmarked) is ___
Response: > 5 µM

Prompt: Fill in: AC50 of O=C(c1ccn(-c2ccccn2)n1)N1CCc2[nH]cnc2C1c1nc2c(F)cccc2s1 (centres unmarked) is ___
Response: 1 to 5 µM

In the following, a different compound is considered.
Prompt: Fill in: AC50 of O=C(C1CC1F)N1CCc2[nH]cnc2C1c1nc2ccccc2s1 (centres unmarked) is ___
Response: 1 to 5 µM
